Tested on: Escherichia coli TOP10
Assay: shrunken log2 fold change of peptide-encoding DNA abundance (4.5 h post-induction vs induction); higher = less antimicrobial activity (less host growth inhibition)
Conditions: time post-induction: 4.5 h; library: site-saturation at positions 5, 18, 19, 20

residueSequence | shrunken log2 fold change
RRIRYRPPRLPRPRPRPSPQPRP | -0.195
RRIRCRPPRLPRPRPRPRFGPRP | 0.316
RRIRLRPPRLPRPRPRPLHEPRP | -0.00702
RRIRQRPPRLPRPRPRPTIQPRP | 0.0369
RRIRNRPPRLPRPRPRPHQCPRP | -0.0318
RRIRCRPPRLPRPRPRPHLFPRP | -0.198
RRIRQRPPRLPRPRPRPTMQPRP | 0.0998
RRIRARPPRLPRPRPRPEFDPRP | 1.44
RRIRNRPPRLPRPRPRPQKSPRP | -0.101
RRIRNRPPRLPRPRPRPSLNPRP | -0.335
RRIRMRPPRLPRPRPRPSFMPRP | 0.0821
RRIRGRPPRLPRPRPRPDPQPRP | 0.694
RRIRYRPPRLPRPRPRPPLRPRP | -0.151
RRIRERPPRLPRPRPRPRLRPRP | 0.25
RRIRCRPPRLPRPRPRPWNHPRP | -0.939

###

System: Escherichia coli TOP10
Experiment: shrunken log2 fold change of peptide-encoding DNA abundance (4.5 h post-induction vs induction); higher = less antimicrobial activity (less host growth inhibition)
Details: time post-induction: 4.5 h; library: site-saturation at positions 5, 18, 19, 20
propertyLabel: shrunken log2 fold change

residueSequence | testedSystem | measValue
RRIRFRPPRLPRPRPRPGIHPRP | Escherichia coli TOP10 | -0.0365
RRIRSRPPRLPRPRPRPNDRPRP | Escherichia coli TOP10 | 0.0698
RRIRERPPRLPRPRPRPIINPRP | Escherichia coli TOP10 | -0.702
RRIRFRPPRLPRPRPRPTSPPRP | Escherichia coli TOP10 | 0.194
RRIRCRPPRLPRPRPRPKKFPRP | Escherichia coli TOP10 | -0.00227
RRIRMRPPRLPRPRPRPVVTPRP | Escherichia coli TOP10 | 0.0538
RRIRLRPPRLPRPRPRPIVKPRP | Escherichia coli TOP10 | -0.0195
RRIRTRPPRLPRPRPRPHLTPRP | Escherichia coli TOP10 | 0.101
RRIRYRPPRLPRPRPRPKNRPRP | Escherichia coli TOP10 | -0.0456
RRIRNRPPRLPRPRPRPACQPRP | Escherichia coli TOP10 | -0.0318
RRIRPRPPRLPRPRPRPSNAPRP | Escherichia coli TOP10 | 0.055
RRIRVRPPRLPRPRPRPPPWPRP | Escherichia coli TOP10 | 0.758
RRIRNRPPRLPRPRPRPPTVPRP | Escherichia coli TOP10 | 0.175
RRIRWRPPRLPRPRPRPTEVPRP | Escherichia coli TOP10 | 0.0181
RRIRRRPPRLPRPRPRPRSNPRP | Escherichia coli TOP10 | 0.224

###

In this section, each of the sequences is paired with its reported shrunken log2 fold change.
Test system: Escherichia coli TOP10
Assay: shrunken log2 fold change of peptide-encoding DNA abundance (4.5 h post-induction vs induction); higher = less antimicrobial activity (less host growth inhibition)
Conditions: time post-induction: 4.5 h; library: site-saturation at positions 5, 18, 19, 20
propertyLabel: shrunken log2 fold change

residueSequence | measValue
RRIRTRPPRLPRPRPRPDFTPRP | -0.0888
RRIRHRPPRLPRPRPRPHWMPRP | -0.785
RRIRTRPPRLPRPRPRPHAHPRP | -0.117
RRIRHRPPRLPRPRPRPMWWPRP | 0.177
RRIRARPPRLPRPRPRPWCEPRP | 0.404
RRIRFRPPRLPRPRPRPHLGPRP | 0.0424
RRIRPRPPRLPRPRPRPHYRPRP | -0.112
RRIRIRPPRLPRPRPRPKADPRP | 0.204
RRIRFRPPRLPRPRPRPKELPRP | -0.127
RRIRHRPPRLPRPRPRPHMVPRP | -1.01
RRIRDRPPRLPRPRPRPVVCPRP | 0.26
RRIRERPPRLPRPRPRPMFNPRP | -0.607
RRIRQRPPRLPRPRPRPTRCPRP | 0.747
RRIRQRPPRLPRPRPRPDLDPRP | 0.0552
RRIRLRPPRLPRPRPRPSWCPRP | -0.277

###

System: Escherichia coli TOP10
Assay: shrunken log2 fold change of peptide-encoding DNA abundance (4.5 h post-induction vs induction); higher = less antimicrobial activity (less host growth inhibition)
Details: time post-induction: 4.5 h; library: site-saturation at positions 5, 18, 19, 20
In this section, each of the sequences is paired with its reported shrunken log2 fold change.

residueSequence | testedSystem | shrunken log2 fold change
RRIRERPPRLPRPRPRPCLYPRP | Escherichia coli TOP10 | -0.489
RRIRDRPPRLPRPRPRPTGMPRP | Escherichia coli TOP10 | -0.00655
RRIRFRPPRLPRPRPRPWIAPRP | Escherichia coli TOP10 | -0.0534
RRIRLRPPRLPRPRPRPKTDPRP | Escherichia coli TOP10 | -0.233
RRIRGRPPRLPRPRPRPAKYPRP | Escherichia coli TOP10 | 0.155
RRIRHRPPRLPRPRPRPHPRPRP | Escherichia coli TOP10 | 0.224
RRIRERPPRLPRPRPRPYCRPRP | Escherichia coli TOP10 | -0.394
RRIRARPPRLPRPRPRPWTAPRP | Escherichia coli TOP10 | 0.871
RRIRHRPPRLPRPRPRPYHTPRP | Escherichia coli TOP10 | -0.132
RRIRHRPPRLPRPRPRPEAFPRP | Escherichia coli TOP10 | -0.0165
RRIRDRPPRLPRPRPRPYSIPRP | Escherichia coli TOP10 | 0.0125
RRIRLRPPRLPRPRPRPYVRPRP | Escherichia coli TOP10 | 0.0394
RRIRTRPPRLPRPRPRPTWRPRP | Escherichia coli TOP10 | 0.233
RRIRPRPPRLPRPRPRPHHAPRP | Escherichia coli TOP10 | -0.125
RRIRHRPPRLPRPRPRPLSYPRP | Escherichia coli TOP10 | -0.895

###

System: Escherichia coli TOP10
Test: shrunken log2 fold change of peptide-encoding DNA abundance (4.5 h post-induction vs induction); higher = less antimicrobial activity (less host growth inhibition)
Conditions: time post-induction: 4.5 h; library: site-saturation at positions 5, 18, 19, 20
Lab note: compare shrunken log2 fold change against -0.03. Equal or greater, write met. Smaller, write not met.

residueSequence | groupLabel
RRIRARPPRLPRPRPRPNNRPRP | not met
RRIRFRPPRLPRPRPRPGFHPRP | not met
RRIRRRPPRLPRPRPRPSAKPRP | met
RRIRMRPPRLPRPRPRPFLVPRP | not met
RRIRDRPPRLPRPRPRPWTDPRP | met
RRIRGRPPRLPRPRPRPHFMPRP | met
RRIRNRPPRLPRPRPRPWCGPRP | not met
RRIRLRPPRLPRPRPRPPNCPRP | not met
RRIRCRPPRLPRPRPRPQQWPRP | met
RRIRWRPPRLPRPRPRPYSLPRP | not met
RRIRGRPPRLPRPRPRPSSHPRP | met
RRIRTRPPRLPRPRPRPPACPRP | met
RRIRERPPRLPRPRPRPWVPPRP | met
RRIRIRPPRLPRPRPRPQATPRP | not met
RRIRRRPPRLPRPRPRPFLSPRP | met

###

Tested on: Escherichia coli TOP10;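 also: peptides expressed intracellularly from a pBAD plasmid library in pooled LB shake-flask culture, induced with 0.3% L-arabinose, DNA abundance read by NGS, three biological replicates, DESeq2 with apeglm shrinkage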
Assay: shrunken log2 fold change of peptide-encoding DNA abundance (4.5 h post-induction vs induction); higher = less antimicrobial activity (less host growth inhibition)
Conditions: time post-induction: 4.5 h; library: site-saturation at positions 5, 18, 19, 20
propertyLabel: shrunken log2 fold change

residueSequence | testedSystem | measValue
RRIRPRPPRLPRPRPRPKFIPRP | Escherichia coli TOP10 | -0.308
RRIRMRPPRLPRPRPRPTEHPRP | Escherichia coli TOP10 | 0.443
RRIRYRPPRLPRPRPRPHVHPRP | Escherichia coli TOP10 | -0.00398
RRIRWRPPRLPRPRPRPHPCPRP | Escherichia coli TOP10 | 0.12
RRIRDRPPRLPRPRPRPSFTPRP | Escherichia coli TOP10 | -0.404
RRIRQRPPRLPRPRPRPQCNPRP | Escherichia coli TOP10 | -0.0983
RRIRPRPPRLPRPRPRPWIFPRP | Escherichia coli TOP10 | -0.0541
RRIRHRPPRLPRPRPRPRGTPRP | Escherichia coli TOP10 | -0.164
RRIRQRPPRLPRPRPRPNSKPRP | Escherichia coli TOP10 | -0.429
RRIRMRPPRLPRPRPRPICLPRP | Escherichia coli TOP10 | -0.322
RRIRYRPPRLPRPRPRPMSDPRP | Escherichia coli TOP10 | 0.0277
RRIRCRPPRLPRPRPRPHVAPRP | Escherichia coli TOP10 | -0.0172
RRIRHRPPRLPRPRPRPSHLPRP | Escherichia coli TOP10 | -0.0467
RRIRFRPPRLPRPRPRPIEYPRP | Escherichia coli TOP10 | -0.00801
RRIRMRPPRLPRPRPRPKYAPRP | Escherichia coli TOP10 | 0.928
